Overview of recorded pIC50 for various compounds
assayed target: human TLR8 (Homo sapiens (Human), UniProt Q9NR97)
Sequence (Q9NR97 27-1041): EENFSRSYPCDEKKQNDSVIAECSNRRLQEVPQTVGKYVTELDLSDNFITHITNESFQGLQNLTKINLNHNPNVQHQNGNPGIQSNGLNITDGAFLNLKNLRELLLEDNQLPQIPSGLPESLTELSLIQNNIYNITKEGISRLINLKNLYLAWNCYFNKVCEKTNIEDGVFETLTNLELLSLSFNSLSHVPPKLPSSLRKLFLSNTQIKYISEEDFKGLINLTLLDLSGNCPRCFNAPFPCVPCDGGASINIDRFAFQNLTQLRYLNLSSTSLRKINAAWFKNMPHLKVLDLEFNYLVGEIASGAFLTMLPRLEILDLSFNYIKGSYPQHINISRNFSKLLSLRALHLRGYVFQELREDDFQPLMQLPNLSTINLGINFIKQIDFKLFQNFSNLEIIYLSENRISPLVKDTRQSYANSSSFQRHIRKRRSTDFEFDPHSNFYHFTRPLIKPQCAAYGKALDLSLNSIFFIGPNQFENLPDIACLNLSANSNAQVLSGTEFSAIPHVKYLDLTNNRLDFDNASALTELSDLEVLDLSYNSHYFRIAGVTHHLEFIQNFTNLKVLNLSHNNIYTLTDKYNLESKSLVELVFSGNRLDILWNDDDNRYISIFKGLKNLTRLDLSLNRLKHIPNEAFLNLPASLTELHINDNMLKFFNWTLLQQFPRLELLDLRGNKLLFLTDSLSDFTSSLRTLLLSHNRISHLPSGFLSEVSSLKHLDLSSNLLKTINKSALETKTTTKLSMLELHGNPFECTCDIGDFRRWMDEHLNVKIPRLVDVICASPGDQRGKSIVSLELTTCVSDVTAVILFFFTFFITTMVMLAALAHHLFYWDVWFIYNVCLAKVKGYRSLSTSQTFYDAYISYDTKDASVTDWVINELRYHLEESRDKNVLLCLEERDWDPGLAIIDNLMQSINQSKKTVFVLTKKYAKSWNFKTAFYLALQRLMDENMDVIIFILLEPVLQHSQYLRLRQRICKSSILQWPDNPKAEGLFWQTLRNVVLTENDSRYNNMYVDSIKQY
assay details: TLR8 inhibition reporter assay (HEK-Blue SEAP);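 further: SEAP driven by IFN-β minimal promoter carrying NF-κB and AP-1 sites, compounds dosed 0.05 nM to 50 µM for 22 h, inhibition scaled between agonist-plus-DMSO and reference-inhibitor wells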
experimental parameters: read-out: TLR8 IC50; HEK-Blue cells overexpressing human TLR8, SEAP reporter, R848 15.9 μM
Please treat pIC50 as minus the base-10 logarithm of the molar concentration.

Example entries begin here.
# compound, measured parameter, result
data = [
    ("CC(C)c1c(-c2cn(C)c3ncccc23)[nH]c2ccc(CCC3CN(C(=O)CN(C)C)C3)nc12", "pIC50", 7.80),
    ("CC(=O)N(C)C1CCC(c2ccc3[nH]c(-c4cn5ncnc5c(C)c4C)c(C(C)C)c3n2)CC1 (stereo not drawn) [Example 440]", "pIC50", 7.85),
    ("COc1cc(-c2[nH]c3ccc(C4CN(CC(C)(C)O)C4)nc3c2C(C)C)cn2ncnc12", "pIC50", 8.00),
    ("COc1cc(-c2[nH]c3ccc(C4CCC(N(CC(N)=O)CC(N)=O)C4)nc3c2C(C)C)cn2ncnc12 (stereo not drawn) [Example 720]", "pIC50", 7.03),
    ("Cc1cc2[nH]c(-c3cc(C)c4ncnn4c3)c(C(C)C)c2nc1C1CCNCC1", "pIC50", 7.32),
]

// returns pIC50 for CCN(CC)C1CCC(c2ccc3[nH]c(-c4cn5ncnc5c(C)c4C)c(C(C)C)c3n2)CC1 (stereo not drawn) with human TLR8 (Homo sapiens (Human), UniProt Q9NR97); value = 8.10

Tested system human TLR8 (Homo sapiens (Human), UniProt Q9NR97); pIC50 recorded for Cc1c(-c2[nH]c3ccc(C4CCC(N5CC(S(C)(=O)=O)C5)CC4)nc3c2C(C)C)cn2ncnc2c1C (stereo not drawn) [Example 448] was 7.62

The compound Cc1cc(-c2[nH]c3ccc(C4CCNCC4)nc3c2C(C)C)nn(C)c1=O , tested on human TLR8 (Homo sapiens (Human), UniProt Q9NR97), showed pIC50 of 7.36

# pIC50 measured on human TLR8 (Homo sapiens (Human), UniProt Q9NR97) for item Cc1c(-c2[nH]c3ccc(C4CCC(N(CCO)C5COC5)CC4)nc3c2C(C)C)cn2ncnc2c1C (stereo not drawn) = 8.28

COc1cc(-c2[nH]c3ccc(CCC4CN(CC5(C)COC5)C4)nc3c2C(C)C)cn2ncnc12 on human TLR8 (Homo sapiens (Human), UniProt Q9NR97) gives pIC50 = 7.74

Summary: Cc1c(-c2[nH]c3ccc(C4CCC(N(C)C5COC5)CC4)nc3c2C(C)C)cn2ncnc2c1C (single isomer, unassigned) [Example 424] , human TLR8 (Homo sapiens (Human), UniProt Q9NR97), pIC50 = 9.13

Bench note, human TLR8 (Homo sapiens (Human), UniProt Q9NR97): entry COc1cc(-c2[nH]c3ccc(C4CCC(NC5CCOCC5)C4)nc3c2C(C)C)cn2ncnc12 (stereo not drawn) [Example 707] , its pIC50 = 8.28
